MIC: recorded values
Tested on: Proteus vulgaris
test_details: Antimicrobial activity against Proteus vulgaris
Type: functional

>  <structure_notation>
CC1(C)S[C@@H]2[C@H](NC(=O)Cc3ccccc3)C(=O)N2[C@H]1C(=O)O

>  <value>
0.063 to 8 µg/mL

$$$$
>  <structure_notation>
c1ccc(N2CCN(c3ncnc4c3Sc3nnnn3N4)CC2)cc1

>  <value>
51 to 410 µg/mL

$$$$
>  <structure_notation>
Cn1nnnc1SCC(=O)Nc1ccc(-c2nc3cc(Cl)c(Cl)cc3n2C)cc1

>  <value>
12.5 to 400 µg/mL

$$$$
>  <structure_notation>
Cc1nnc(SCC2=C(C(=O)O)N3C(=O)[C@@H](NC(=O)Cn4cnnn4)[C@H]3SC2)s1

>  <value>
0.063 to 8 µg/mL

$$$$
>  <structure_notation>
CO/N=C(\C(=O)N[C@@H]1C(=O)N2C(C(=O)O)=C(CSc3nc(=O)c(O)nn3C)CS[C@H]12)c1csc(N)n1

>  <value>
0.063 to 8 µg/mL

$$$$

Input line: Look up MIC: `Cn1c(-c2ccc(NC(=O)CSc3nnnn3-c3ccccc3)cc2)nc2cc(Cl)c(Cl)cc21`
Output line: 12.5 to 400 µg/mL

Input line: Look up MIC: `O=C(O)c1cn(C2CC2)c2cc(N3CCN(C(=O)Cn4nnnc4S)CC3)c(F)cc2c1=O`
Output line: 2 to 128 µg/mL

====

Test system: Escherichia coli
test_details: Antimicrobial activity against Escherichia coli ATCC 25922 after 48 hrs by NCCLS protocol based method
Type: functional
measurement_context: ATCC 25922, 48 h
MIC: recorded values

Take a look at these entries with their results.
>  <molecule>
CCOC(=O)C(C#N)C(c1cc2ccccc2n2nnnc12)P(=O)(OCC)OCC (stereo not drawn)

>  <value>
10 to 20 mg/L

$$$$
>  <molecule>
CCOC(=O)C(C#N)C(c1cc2ccc(OC)cc2n2nnnc12)P(=O)(OCC)OCC (stereo not drawn)

>  <value>
10 mg/L

$$$$
>  <molecule>
CCOC(=O)C(C#N)C(c1cc2c(C)cccc2n2nnnc12)P(=O)(OCC)OCC (stereo not drawn)

>  <value>
10 to 20 mg/L

$$$$
>  <molecule>
COC1=CC(=O)C[C@@H](C)[C@]12Oc1c(Cl)c(OC)cc(OC)c1C2=O [GRISEOFULVIN]

>  <value>
10 mg/L

$$$$
>  <molecule>
CCOC(=O)C(C#N)C(c1cc2c(OC)cccc2n2nnnc12)P(=O)(OCC)OCC (stereo not drawn)

>  <value>
10 to 20 mg/L

$$$$
>  <molecule>
CCOC(=O)C(C#N)C(c1cc2cc(OC)ccc2n2nnnc12)P(=O)(OCC)OCC (stereo not drawn)

>  <value>
10 to 20 mg/L

$$$$

Input line: Look up MIC: CN[C@@H]1[C@H](O[C@H]2[C@H](O[C@H]3[C@H](O)[C@@H](O)[C@H](N=C(N)N)[C@@H](O)[C@@H]3N=C(N)N)O[C@@H](C)[C@]2(O)C=O)O[C@@H](CO)[C@H](O)[C@H]1O [STREPTOMYCIN]
Output line: 10 mg/L

Input line: Look up MIC: CCOC(=O)C(C#N)C(c1cc2c(OCC)cccc2n2nnnc12)P(=O)(OCC)OCC (stereo not drawn)
Output line: 10 to 20 mg/L

====

Test system: Pichia norvegensis
test_details: Antifungal activity against Candida mycoderma after 24 hrs
Type: functional
measure_name: MIC

Take a look at these entries with their results.
>  <molecule>
CCn1cc(C(=O)O)c(=O)c2cc(F)c(N3CCNCC3)cc21

>  <measure_name>
MIC

>  <value>
1 to 16 µg/mL

$$$$
>  <molecule>
Cc1cc(=O)oc2cc(OCC(O)Cn3nnnc3C)ccc12 (stereo unspecified)

>  <measure_name>
MIC

>  <value>
4 to 512 µg/mL

$$$$

Input line: Look up MIC: `OC(Cn1cncn1)(Cn1cncn1)c1ccc(F)cc1F`
Output line: 1 to 256 µg/mL

Input line: Look up MIC: Cc1cc(=O)oc2cc(OCC(O)Cn3cnnn3)cc(OCC(O)Cn3cnnn3)c12 (stereo unspecified)
Output line: 32 to 512 µg/mL

Input line: Look up MIC: Cc1cc(=O)oc2cc(OCC(O)Cn3nnnc3C)cc(OCC(O)Cn3nnnc3C)c12 (stereo unspecified)
Output line: 32 to 512 µg/mL

Input line: Look up MIC: Cc1cc(=O)oc2cc(OCC(O)Cn3cnnn3)ccc12 (stereo unspecified)
Output line: 8 to 512 µg/mL

====

Tested on: Candida albicans
test_details: Antifungal activity against Candida albicans ATCC 76615 after 24 hrs
Type: functional
measurement_context: ATCC 76615, 24 h
MIC: recorded values

Take a look at these entries with their results.
>  <compound>
Cc1cc(=O)oc2cc(OCC(O)Cn3nnnc3C)cc(OCC(O)Cn3nnnc3C)c12 (stereo unspecified)

>  <MIC>
32 to 512 µg/mL

$$$$
>  <compound>
OC(Cn1cncn1)(Cn1cncn1)c1ccc(F)cc1F [FLUCONAZOLE]

>  <MIC>
1 to 256 µg/mL

$$$$
>  <compound>
Cc1cc(=O)oc2cc(OCC(O)Cn3nnnc3C)ccc12 (stereo unspecified)

>  <MIC>
4 to 512 µg/mL

$$$$

Input line: Look up MIC: Cc1cc(=O)oc2cc(OCC(O)Cn3cnnn3)cc(OCC(O)Cn3cnnn3)c12 (stereo unspecified)
Output line: 32 to 512 µg/mL

Input line: Look up MIC: Cc1cc(=O)oc2cc(OCC(O)Cn3cnnn3)ccc12 (stereo unspecified)
Output line: 8 to 512 µg/mL

Input line: Look up MIC: CCn1cc(C(=O)O)c(=O)c2cc(F)c(N3CCNCC3)cc21 [NORFLOXACIN]
Output line: 1 to 16 µg/mL

====

Tested on: Escherichia coli
test_details: Antimicrobial activity against Escherichia coli
Assay type: functional
measure_name: MIC

Take a look at these entries with their results.
>  <molecule>
CCn1cc(C(=O)O)c(=O)c2cnc(N3CCNCC3)nc21 [PIPEMIDIC ACID]

>  <measured_target>
Escherichia coli

>  <value>
31.2 µg/mL

$$$$
>  <molecule>
CC(C)(C)Nc1c(-c2cc3ccccc3n3nnnc23)nc2sc(C#N)cn12

>  <measured_target>
Escherichia coli

>  <value>
> 320 µg/mL

$$$$
>  <molecule>
Cc1ccc2c(c1)cc(C1CC(c3ccc(Cl)cc3)=NN1C(N)=S)c1nnnn12 (stereo not given)

>  <measured_target>
Escherichia coli

>  <value>
3.12 to 100 µg/mL

$$$$
>  <molecule>
COc1ccc(C2=NN(C(N)=S)C(c3cc4cc(C)ccc4n4nnnc34)C2)cc1 (stereo not given)

>  <measured_target>
Escherichia coli

>  <value>
3.12 to 25 µg/mL

$$$$

Input line: Look up MIC: `COc1ccc(/C=C2\SC(=O)N(Cc3ccc(-c4ccccc4-c4nnn[nH]4)cc3)C2=O)c(OC)c1`
Output line: 7.75 to 35.4 µg/mL

Input line: Look up MIC: `COc1ccc(Nc2c(-c3cc4ccccc4n4nnnc34)nc3sc(C#N)cn23)cc1`
Output line: > 320 µg/mL

Input line: Look up MIC: Cc1ccc2cc(C3CC(c4ccc(Cl)cc4)=NN3C(N)=S)c3nnnn3c2c1 (stereo not given)
Output line: 3.12 to 100 µg/mL

Input line: Look up MIC: `O=c1c(OCc2nnn[nH]2)c(-c2ccc(F)cc2)oc2cc(Cl)cc(Cl)c12`
Output line: 50 to 400 µg/mL

Input line: Look up MIC: `Oc1cccc(-c2nnnn2-c2nc3ccccc3s2)c1`
Output line: 50 to 100 µg/mL

Input line: Look up MIC: `COc1ccc(/C=C2\SC(=O)N(Cc3ccc(-c4ccccc4-c4nnn[nH]4)cc3)C2=O)cc1`
Output line: 7.7 µg/mL

====

MIC: recorded values
System: Escherichia coli
test_details: Antimicrobial activity against Escherichia coli
Assay type: functional

Take a look at these entries with their results.
>  <structure_notation>
Cc1ccc2cc(/C=C/C(=O)c3ccc(Cl)cc3)c3nnnn3c2c1

>  <value>
6.25 to 100 µg/mL

$$$$
>  <structure_notation>
N=C(N)Nc1nnn(Cc2ccccc2Cn2nnc(C(=N)N)n2)n1

>  <value>
30 to 40 µg/mL

$$$$
>  <structure_notation>
O=[N+]([O-])c1cccc(-c2nnnn2-c2nc3ccccc3s2)c1

>  <value>
50 to 100 µg/mL

$$$$
>  <structure_notation>
COc1ccc(/C=C2\SC(=O)N(Cc3ccc(-c4ccccc4-c4nnn[nH]4)cc3)C2=O)cc1OC

>  <value>
7.75 to 35.4 µg/mL

$$$$
>  <structure_notation>
Cc1ccc2c(c1)cc(/C=C/C(=O)c1ccc(Cl)cc1)c1nnnn12

>  <value>
6.25 to 100 µg/mL

$$$$
>  <structure_notation>
O=[N+]([O-])c1ccc(-c2nnnn2-c2nc3ccccc3s2)cc1

>  <value>
50 to 100 µg/mL

$$$$

Input line: So what MIC did `Cn1nnnc1SCC(=O)Nc1ccc(-c2nc3cc(Cl)c(Cl)cc3n2C)cc1` get with Escherichia coli?
Output line: 12.5 to 400 µg/mL

Input line: So what MIC did `Clc1ccc(-c2nnnn2-c2nc3ccccc3s2)cc1` get with Escherichia coli?
Output line: 50 to 100 µg/mL

Value source: ChEMBL document CHEMBL4342421
